The measurements presented in this section are drawn from patent US20250295799A1.

Listing: JHH-5 Internalization (MFI), Day 14 in mouse plasma of selected binders
# Test System: human glypican-3 (GPC3) (human, UniProt P51654 25-554); note: test concentration or dose not given here
# Assay Explanation: cell-based or functional assay
Just the number in MFI, nothing appended.

# Binder, Reported Value
records = [
    ("H18L6_LC_G34R mAb, v40206 (antibody, human IgG1, kappa, V domains shown, Full-size IgG1/kappa) VH: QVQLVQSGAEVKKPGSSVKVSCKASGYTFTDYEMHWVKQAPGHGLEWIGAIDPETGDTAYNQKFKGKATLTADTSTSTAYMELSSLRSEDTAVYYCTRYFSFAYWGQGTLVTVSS VL: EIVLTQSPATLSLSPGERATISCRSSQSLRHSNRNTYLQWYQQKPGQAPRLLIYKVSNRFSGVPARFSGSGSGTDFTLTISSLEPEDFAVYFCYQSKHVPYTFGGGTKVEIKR", 11100),
]

As a next step, examine the binder that follows.
Value lookup for JHH-5 Internalization (MFI), Day 14 in mouse plasma; key = H18L6_LC_G34E mAb, v40204 (antibody, human IgG1, kappa, V domains shown, M3-H18L6 chains with the stated light chain point mutation, IgG1/kappa) VH: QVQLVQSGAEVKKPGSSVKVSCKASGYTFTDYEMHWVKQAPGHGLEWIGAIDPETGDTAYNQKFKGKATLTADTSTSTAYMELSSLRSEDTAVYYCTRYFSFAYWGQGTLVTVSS VL: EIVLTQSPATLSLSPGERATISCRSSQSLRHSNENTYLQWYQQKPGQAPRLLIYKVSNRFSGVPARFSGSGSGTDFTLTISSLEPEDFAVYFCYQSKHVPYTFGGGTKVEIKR 6040
